Target: 5-hydroxytryptamine receptor 2A (Homo sapiens) (UniProt P28223)
Sequence (P28223 whole entry, looked up): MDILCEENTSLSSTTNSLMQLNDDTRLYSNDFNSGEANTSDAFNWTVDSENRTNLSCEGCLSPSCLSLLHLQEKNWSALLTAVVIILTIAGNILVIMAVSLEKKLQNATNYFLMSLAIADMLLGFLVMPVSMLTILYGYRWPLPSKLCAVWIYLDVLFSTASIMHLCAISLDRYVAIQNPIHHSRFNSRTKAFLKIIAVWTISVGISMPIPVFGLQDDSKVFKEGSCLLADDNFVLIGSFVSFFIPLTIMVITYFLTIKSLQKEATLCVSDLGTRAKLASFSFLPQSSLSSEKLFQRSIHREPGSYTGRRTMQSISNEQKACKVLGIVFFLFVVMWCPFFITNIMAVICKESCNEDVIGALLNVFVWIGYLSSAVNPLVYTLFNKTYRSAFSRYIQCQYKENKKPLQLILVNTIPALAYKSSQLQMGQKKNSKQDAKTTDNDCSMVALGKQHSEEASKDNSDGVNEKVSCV
Assay: 5-hydroxytryptamine receptor 2A (HTR2A) small molecule agonists, cell-based qHTS assay (AID 1963587); further: nearly all actives have a fitted effect of over 30% in size
Details: HTR2A-CHO cells, calcium flux fluorescence, agonist mode; series mostly up to 76.8 µM
Inconclusive results are not listed. Active and inactive are the calls of the source. The call rests on the fitted dose curve.
Measured property: outcome

Known results for molecules:
Molecule: Cc1ccc2c(c1)C(=O)OC2=O
outcome: inactive
//
Molecule: C=CC(=O)OCCOCCOCCOCCOC(=O)C=C
outcome: inactive
//
Molecule: O=[N+]([O-])c1ccccc1C(F)(F)F
outcome: inactive
//
Molecule: CC1(C)S[C@@H]2[C@H](NC(=O)COc3ccccc3)C(=O)N2[C@H]1C(=O)O
outcome: inactive
//
Molecule: CC(=O)/C=C/C1=C(C)CCCC1(C)C
outcome: inactive

Next:
Data request: Reported outcome for `C/C=C/C=C/C(=O)O` : what is it?
Data returned: inactive

---

Assay: p53 small molecule agonists, cell-based qHTS assay with human liver microsomes: qHTS cell viability counter screen (AID 1963579); further: nearly all actives have a fitted effect of over 45% in size
Details: p53RE-bla HCT-116 viability, ATP luminescence, 16 h, HLM; series mostly up to 66 µM
Description: National Center for Advancing Translational Sciences [NCATS] Division of Preclinical Innovation [DPI] U.S. Environmental Protection Agency [EPA] National Institutes of Environmental Health Sciences [NIEHS] National Toxicology Program [NTP] U.S. Food and Drug Administration [FDA] p53, a tumor suppressor protein, is activated following cellular insult, including DNA damage and other cellular stresses. […] The activation of the reporter gene under culture conditions can be detected by fluorescence intensity. […]
Inconclusive results are not listed. Calls of active or inactive are those of the source. The call rests on the fitted dose curve.
Measured property: outcome

For orientation, consider the following solved cases.
Molecule: CCc1nc(N)nc(N)c1-c1ccc(Cl)cc1
Result: inactive
--
Molecule: CC(O)CC(C)(C)O (stereo unspecified)
Result: inactive
--
Molecule: CCN1CCCC1=O
Result: inactive
--
Molecule: O=C(O)CCCCCCCCC(=O)O
Result: inactive
--
Molecule: CCCCCCCC(=O)O
Result: inactive

// next entry
Data request: Data request, read-out outcome, for `CC(=O)OC[C@H]1O[C@@](COC(C)=O)(O[C@H]2O[C@H](COC(C)=O)[C@@H](OC(C)=O)[C@H](OC(C)=O)[C@H]2OC(C)=O)[C@@H](OC(C)=O)[C@@H]1OC(C)=O`
Data returned: inactive

---

Experiment: cAMP Responsive Elements (CRE) small molecule agonists, cell-based qHTS assay (AID 1963590)
Conditions: CRE-bla HEK293T, beta-lactamase FRET ratio, 3 h; series mostly up to 92.4 µM
Results filed as inconclusive are left out. Calls of active or inactive are those of the source. The call rests on the fitted dose curve.
Measured property: Potency

Molecule: OC[C@@H](O)[C@@H](O[C@@H]1O[C@H](CO)[C@H](O)[C@H](O)[C@H]1O)[C@H](O)[C@@H](O)CO
Potency: inactive

Molecule: Cc1cc(C)c(O)c(C)c1
Potency: inactive

Molecule: COc1ccccc1O
Potency: inactive

Molecule: CC(O)C(=O)O (stereo unspecified)
Potency: inactive

Molecule: O=C(O)c1cccc(C(=O)O)c1
Potency: inactive

Molecule: C/C=C(C)/C=C/C=C(C)C
Potency: inactive

Molecule: CCN1CCCC1=O
Potency: inactive

Molecule: NCCOCCO
Potency: inactive

Data request: Which Potency value belongs to CN(C)CCOC(C)(c1ccccc1)c1ccccn1 (stereo unspecified) ?
Data returned: inactive

Data request: Now consider CC(O)COCC(C)O (stereo unspecified) .
Data returned: inactive
